B1: library; a variant is named by its letters at N, in order (parent)
chain: ACATTTGTTGATACAACCATAAAATGATAATTACACCCATAAATTGATAATTATCACACCCANNNNNNNNNNNNNNCTCTGATCATAGTCAGACCAACATTGCTACGACCCGTATTCGCACCGACAC

# Variants of: B1
# assay-summary: relative integration efficiency (T-RL orientation) vs wild-type transposon end (log2 (normalized fold change)); transposon end mutated: right end (5 bp flank + 75 bp right end); higher = more efficient transposition
# condition-label: with VchCAST RNA-guided transposition machinery (E. coli BL21(DE3) host, lacZ target)
Binary call on relative integration efficiency (log2): yes from -0.4 upward, no beneath that.

INSERT INTO assay_data (change, group) VALUES
  ('TAAATTGATCGTGC', 'yes'),
  ('ATTTAACTATAACG G26T', 'no'),
  ('TAAATTGATATTGC C55A', 'no'),
  ('ATTTAACTATAACG A33G', 'no'),
  ('ATTTAACTATAACG A41T', 'no'),
  ('TAAATTGATATTGC T44A', 'yes'),
  ('GAAATTGATATTGC', 'no'),
  ('TAAATTGATATTGC C36G', 'no'),
  ('TAAATTGATATTGC C79G', 'yes'),
  ('ATTTAACTATAACG T25A', 'no'),
  ('ATTTAACTATAACG A22C', 'no'),
  ('TAAATTGATATTGC A42G', 'no'),
  ('TAAATTGATATTGC A1C', 'yes'),
  ('ATTTAACTATAACG T40C', 'no'),
  ('TAAATTGATATTGC C17G', 'yes'),
  ('TAAATTGATATTGC A56C', 'yes'),
  ('TAAATTGATATTGC C14G', 'no'),
  ('ATTTAACTATAACG C61G', 'no'),
  ('ATTTAACTATAACG C38G', 'no'),
  ('TAAATTGATATTGC T8G', 'no'),
  ('TAAATTGATATTGC C59A', 'yes');

Source: the supplement of paper PMC10201428
